# ASSAY_TEXT: yeast display, Sf9 membrane polyspecificity reagent, FACS + sequencing; frameworks hold sequencing errors

| SEQUENCE_DATA | polyreactivity (PSR sort gate) |
| --- | --- |
| QVQLVESGGGLVQAGGSLRLSCAASGSIFYRNAMGWSRQPPGKERELVAGITTRGGSTYYADSVKGRFTISRDNAKNTVYLQMNSLKPEDTAVYYCAAVPYSRYSSSRGYWGQGTQVTVSS | high polyreactivity |
| QVQLVESGGGLVQSGGSLRLSCAASVRIFGPYVMGWYRQAPGKERELVAAISTSGTSTYDADSVKGRFTISRDNAKNTVYLQMNSLKPEDTAVYYCAKRSGALHRLMDYWGQGTQVTVSS | low polyreactivity |
| QVQLVESGGGLVQAGGSLRLSSAASGSIFYGNSMGWYRQAPGKERELVAAISQSGGSTYYADSVKGRFTISRDNAKNTVYLQMNSLKPEDTAVYYCAAYTPYATWRYDYWGQGTQVTVSS | low polyreactivity |
| QVQLVESGGGLVQAGGSLRLSCAASGFTFKLYAMGWYRQSPGKVRELVAAISSSGGRTYYADSVKGRFTISRDNAKYTVYLQMNSLKPEDTAVYYCNAVRTVNDYHYDYWGQGSQVTVSS | high polyreactivity |
| QVQLVESGGGLVQAVGSLRLSCAASGSIFTPYAMGWYRQAPGKERELVAAISGSGGSTRYADSVKGRFTISRDNATNTVYLQMNSLKPEDTAVYYCAADRYTYIWYHIYDYWGQGTQVTVSS | low polyreactivity |

====

# ASSAY_TEXT: yeast display, Sf9 membrane polyspecificity reagent, FACS + sequencing; frameworks hold sequencing errors
EXPERIMENTAL_READOUT: polyreactivity (PSR sort gate)

| SEQUENCE_DATA | EXPERIMENTAL_READOUT | RESULT |
| --- | --- | --- |
| QVQLVESGGGLVQAGGSLRLSCAASGLTFVYYAMGWYRQAPGKERELVAAISGVGSTHYADSVKGRFTISRDNANNTVYLQMNSLKPEDTAVYYCNADYAYFWGWYGDWGQGTQVTVSS | polyreactivity (PSR sort gate) | low polyreactivity |
| QVQLVESGGGLVQAGGSLRLSCADSGFIFTVNAMGWYRQAPGKERELVAAITSGGNTYYADSVKGRFTISRDNAKNTVYLQMNSLKPEDAAVYYCNAVFYTWSPYGTTVRSYGYWGQGTQVTVSS | polyreactivity (PSR sort gate) | high polyreactivity |
| QLQLVESGGGLVQAGGSLRLSSAASGFIFDGNAMGGYRQAPGKERELVAAISWDGGTYYADSVKGRFTISRDNAKNTVYLQMNSLKPEDTAVDYCPAEQTQLYSFGWDEYWGQGTQVTVSS | polyreactivity (PSR sort gate) | low polyreactivity |
| QVHLVESGGGLVQAGGSLRLSCAASGFTFRRYAMGWYRQAPGKERELVAAISYGGGRTYYADSVKGRFTISRDNAKNTVYLQMNSLKPEDTAVYYCAADVQSRYVGEGDYWGQGTQVTVSS | polyreactivity (PSR sort gate) | high polyreactivity |
| QVQLVESGGGLVQAGGSLRLSCAASGLTLSYYAMGWYRPAPGKEMELVAAISSGGSTYYADSVKGRFTISRDNAKNTVYLQMNSLKPEDTAVYYCAAQWWRLYWEYYYWGQGTQVTVSS | polyreactivity (PSR sort gate) | low polyreactivity |
| QVQLVESGGGLVQAGGSLRLSCSASGRTNWLNAMGLYRQAPGKERELVATISSSSGSTTYADSVKGRFTISRDNAKNTVYLQMNSLKPEDTAVYYCNVDDPFYSGVVEFDYWGQGTQVTVSS | polyreactivity (PSR sort gate) | low polyreactivity |
| QFQLVESGGGLVQAGGSLRLSCAASGLIFVYNDMGWYRQAPGKETELVAGITGTGGNTYYADSVKGRFTISRDNEKNTVYLQMNSLKPEDTAVYYCAASHTSYYLRYGYWGQGTQVTVSS | polyreactivity (PSR sort gate) | high polyreactivity |
| QVQLVESVGGLVQAGGSLRLSCAASGSNFKYYAMGWYRQAPGKERELVAAITIGGNTNYADSVKGRFTISRDNAKNTVYLQMNSLKPEDTAVYYCATGGYYSAIVYGGYDYWGQGTQVTVSS | polyreactivity (PSR sort gate) | low polyreactivity |
| QVQLVESGGGLVQAGGSLRLSCAASGLTFSGYAMGWYRQAPGKERELVAAISWRGGSTYYADSVKGRFTISRDNAKNTVYLQMNSLKPEDTAVYYCNRARVQDYPYYYWGQGTQVTVSS | polyreactivity (PSR sort gate) | high polyreactivity |
| QVQLVESGAGLVQAGGSLRLSCAASGSIFNSYAMGWYRQPPGKERELVAAISKAGGSTYYADSVKGRFTISRDNAKNTVYLQMNSQKPEDTAVYYCAARYGRCYDSAYNYWGQGTQVTVSS | polyreactivity (PSR sort gate) | high polyreactivity |
| QVQLVESGGGLVQAGGSLRLSCAASGSNFEYYTMGWYRQAPGKEREFVAAITFTGDSTYYADSVKGRFTSSRDNAKNTVYLQMNSLTPEDTAVYYCNDDSDTYDGEYDYWGQGTQVTVSS | polyreactivity (PSR sort gate) | low polyreactivity |

====

# ASSAY_TEXT: yeast display, Sf9 membrane polyspecificity reagent, FACS + sequencing; frameworks hold sequencing errors
EXPERIMENTAL_READOUT: polyreactivity (PSR sort gate)

| SEQUENCE_DATA | EXPERIMENTAL_READOUT | RESULT |
| --- | --- | --- |
| QVQLVESGGGLVQAGGSLRLSCAASGSIFWSYAMGWYRQAPGKERELVADSVKGRFTISRDNAKNTVYLQMNSLKPEDTAVYYCAADSPSAPVYLYDYWGQGTQVTVSS | polyreactivity (PSR sort gate) | low polyreactivity |
| QVQLVESGGGLVQAGGSLRLSCAASGSTFKGNTMGWYRQAPGKERELVAAISWRGGSTYYADSVKGRFTISRDNAKNTVYLQMNSMKPEDTAVYYCAAKSHWWWRGYYYLGQGTQVTVSS | polyreactivity (PSR sort gate) | high polyreactivity |
| QVQLVESGGGLVQAGGSLRLSCAASGRIFAIYAAIGWYRQAPGKERELVAAISSGDNTNYADSEKGRFTISRDNAKNTVYLQMNSLIPEDTAVYYCATDLVYYAAVTKFAEYDYWGQGTQVTVSS | polyreactivity (PSR sort gate) | low polyreactivity |
| QVHLVESGGGLVQAGGSLRLSCAAYGRIFTLNAMGWDRQAPGKERGWVARISRTGGSTYYADSVKGRFTISRDNAKNTVYLQMNSLKPEDTAVYYCAAAGFSRQPGAGAYYYWGQCTQVTVSS | polyreactivity (PSR sort gate) | high polyreactivity |
| QVQLVESGGGLDQAGGSLRLSCAASGRIFYYYALGWYRQAPGKERELVAAITWIGTSTYYADSVKGRFTISRDNGKNTVYLQMNSLKPEDTAVYYCAAEGWVGAWWYVLDVRYDYWGQGTQVTVSS | polyreactivity (PSR sort gate) | low polyreactivity |
| QVQLVESGGGLVQAGGSLRLSCAASGITFARYAMGLYRQAPGKERELVAAISWSGGSTYYADSVKGRFTISRDNAKNTVYLQMNSLKPEDTAVYYCAAGGRVRRNKFDYWGQGTQVTVSS | polyreactivity (PSR sort gate) | high polyreactivity |
| QVQLVESGGGLVQSGGSLRLSCAASGRTFYRYAMGWYRQAPGKERELVAAISYSTTRTYYADSVKGRFTISRDIAKNTVYLQMNSLKPEETAVYYCAAYGWSRFGYDYWGQGSQVTVSS | polyreactivity (PSR sort gate) | high polyreactivity |
| QVQLVESGGGLVQAGGSLRLSSAASGRIFRFYAMGWYRQAPGKERELVAAITSGGSTYYADSVKGRFTISRDNAKNTVYLQMNRLKPEDTAVYYCANYYWGQGTQVTVSS | polyreactivity (PSR sort gate) | low polyreactivity |
| QVQLVESGGGLVQAGGSLRLSCAASGRIFPVYVMGSYREAPGKEREFVASISWRGGSTFYADSVKGRFTISRDNAKNTVYLQMNSLKPEDTAVYYCAADYWSSDSSRGTMYYWGQGTQVTVSS | polyreactivity (PSR sort gate) | low polyreactivity |
| QVQLVESGGGLVQAGGSLRLSCAASGYTFRQYTIGWYRPAPGKERELVDAISRSGGSTYYADSVKGRFTISRDNAKNTVFLQMNSLKPEDTAVYYCNAEGYGRTDGFGYDYWGQGTQVTVSS | polyreactivity (PSR sort gate) | high polyreactivity |
| QVQLVESGGGLVQAGGSLRLTCAASGRTFQYYVMVWYRQAPGKEREFVAAISTSGGRTYYADSVKGRFTISRDNAKNSVYLQMNSLKPEATAVYYCAATGFSYRYFQTRDYWGQGTQVTVSS | polyreactivity (PSR sort gate) | high polyreactivity |

====

# ASSAY_TEXT: yeast display, Sf9 membrane polyspecificity reagent, FACS + sequencing; frameworks hold sequencing errors

| SEQUENCE_DATA | polyreactivity (PSR sort gate) |
| --- | --- |
| QVQLVESGGGLVQAGGSLRLSCAASGIIFITYAMGWYRQAPGKERELVAAITNSGGGTYYADSVKGRFTNSRDNAKNTVYLQMNSLKPEDTAVYYCAARKTAYGYRYDYWGQGTQVTVSS | high polyreactivity |
| QDQLVESGGGLVQAGGSLRLSCAASGSIFRAYAMGWYRQAPGKERELVAAISRSGDSTYYADSVKGRFTISRDNAKNTVYLQMNSLKPEDTAVYYCAAQRKPYVRPSGPYKRRDYWGQGTQVTVSS | high polyreactivity |
| QVQLVASGGGLVQAGGSLRFSCAASGRPLSYYAMGWYREAPGKERELVAAISRRGGSTYYADSVKGRFTISRDNAQNTVYIQMNSLKPKDTAVYYCAAETFDYADYIANGSGEYDYWGQGTQVTVSS | high polyreactivity |
| QVQLVESGGGLVQAGGSLRLSCAASGSILLYYTMGWYIQAPGKEWELVAAISWSGGSTYYADSVKGRFTISRDNAKNTVYLLMISLKPEDTAVYYCATRSVQGSYFAGYGYWGQGTQVTVSS | low polyreactivity |
| QVQLVESGGRLVQAGGTLRLSCAASGRIFGDYAMGWYRQAPGKERELVAVISVGGRTTYADSVKGRFTISRDNAKNTVYLQMNSLKPEDTAVYYCATRLSTRDGGYRGQGTQVTVSS | low polyreactivity |

The reported numbers originate from the nanobody polyreactivity screen of Harvey et al. (2022).
